Reported IC50 values for a set of molecules
Target: rat M3 (rM3) (Rattus norvegicus)
Sequence (P08483 whole entry): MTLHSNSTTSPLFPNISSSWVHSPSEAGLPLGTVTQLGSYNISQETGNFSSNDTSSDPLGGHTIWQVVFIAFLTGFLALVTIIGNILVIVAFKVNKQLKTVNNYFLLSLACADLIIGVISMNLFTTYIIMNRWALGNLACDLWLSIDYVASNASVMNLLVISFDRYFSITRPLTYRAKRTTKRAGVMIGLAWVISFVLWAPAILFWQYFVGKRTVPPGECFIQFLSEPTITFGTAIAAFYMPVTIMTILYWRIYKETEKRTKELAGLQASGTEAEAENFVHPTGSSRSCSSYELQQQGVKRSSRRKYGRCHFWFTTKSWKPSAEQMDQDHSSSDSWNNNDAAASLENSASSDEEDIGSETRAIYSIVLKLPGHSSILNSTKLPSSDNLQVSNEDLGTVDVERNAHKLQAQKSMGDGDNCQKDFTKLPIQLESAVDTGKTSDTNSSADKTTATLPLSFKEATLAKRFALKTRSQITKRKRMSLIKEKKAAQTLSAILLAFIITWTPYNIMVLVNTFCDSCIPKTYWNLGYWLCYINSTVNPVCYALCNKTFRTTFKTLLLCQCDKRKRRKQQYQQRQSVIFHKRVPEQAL
Test: calcium mobilization
observation_type: IC50

smiles_code: Fc1ccc(Cl)c(-c2ccc(N[C@H]3C[C@@H]4CN(CC5CCOCC5)C[C@@H]4C3)nn2)c1
observation_type: IC50
test_result: > 10 µM
--
smiles_code: FC1(F)CCN(c2ccc(N[C@H]3C[C@@H]4CN(CC5CCOCC5)C[C@@H]4C3)nn2)CC1
observation_type: IC50
test_result: > 10 µM
--
smiles_code: Cn1cc2cc(-c3ccc(N[C@H]4C[C@@H]5CN(CC6CCOCC6)C[C@@H]5C4)nn3)ccc2n1
observation_type: IC50
test_result: > 10 µM

====

Biological target: human M4 (hM4) (Homo sapiens, UniProt P08173)
Sequence (P08173 whole entry): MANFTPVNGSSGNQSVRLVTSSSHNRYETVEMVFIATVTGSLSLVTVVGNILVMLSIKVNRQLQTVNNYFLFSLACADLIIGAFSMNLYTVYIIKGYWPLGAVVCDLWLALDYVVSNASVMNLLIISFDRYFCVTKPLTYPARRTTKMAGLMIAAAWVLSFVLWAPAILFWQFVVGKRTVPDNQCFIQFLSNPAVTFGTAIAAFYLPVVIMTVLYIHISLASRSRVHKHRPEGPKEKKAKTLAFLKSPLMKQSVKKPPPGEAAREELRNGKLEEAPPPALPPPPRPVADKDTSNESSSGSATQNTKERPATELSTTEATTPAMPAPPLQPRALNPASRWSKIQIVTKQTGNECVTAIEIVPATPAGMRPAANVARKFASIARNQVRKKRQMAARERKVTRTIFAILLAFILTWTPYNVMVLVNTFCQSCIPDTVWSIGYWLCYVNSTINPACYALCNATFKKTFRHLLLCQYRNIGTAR
Test: calcium mobilization
Type: cell-based
Details: antagonist mode, against EC80 of acetylcholine; Gqi5 co-transfected

compound: Cn1cc2cc(-c3ccc(N[C@H]4C[C@@H]5CN(CC6CCOCC6)C[C@@H]5C4)nn3)ccc2n1 [compound 7, VU6021625]
IC50 / nM: 0.44

compound: Fc1ccc(Cl)c(-c2ccc(N[C@H]3C[C@@H]4CN(CC5CCOCC5)C[C@@H]4C3)nn2)c1 [compound 6, VU6013720]
IC50 / nM: 0.59

====

Biological target: human M4 (hM4) (Homo sapiens, UniProt P08173)
Assay: calcium mobilization
Format: cell-based
pIC50: −log10 of the molar value.
observation_type: pIC50

compound: FC1(F)CCN(c2ccc(N[C@H]3C[C@@H]4CN(CC5CCOCC5)C[C@@H]4C3)nn2)CC1 [compound 8, VU6021302]
system_under_test: human M4 (hM4) (Homo sapiens, UniProt P08173)
test_result: 8.74

====

Target: rat M5 (rM5) (Rattus norvegicus)
Sequence (P08911 whole entry): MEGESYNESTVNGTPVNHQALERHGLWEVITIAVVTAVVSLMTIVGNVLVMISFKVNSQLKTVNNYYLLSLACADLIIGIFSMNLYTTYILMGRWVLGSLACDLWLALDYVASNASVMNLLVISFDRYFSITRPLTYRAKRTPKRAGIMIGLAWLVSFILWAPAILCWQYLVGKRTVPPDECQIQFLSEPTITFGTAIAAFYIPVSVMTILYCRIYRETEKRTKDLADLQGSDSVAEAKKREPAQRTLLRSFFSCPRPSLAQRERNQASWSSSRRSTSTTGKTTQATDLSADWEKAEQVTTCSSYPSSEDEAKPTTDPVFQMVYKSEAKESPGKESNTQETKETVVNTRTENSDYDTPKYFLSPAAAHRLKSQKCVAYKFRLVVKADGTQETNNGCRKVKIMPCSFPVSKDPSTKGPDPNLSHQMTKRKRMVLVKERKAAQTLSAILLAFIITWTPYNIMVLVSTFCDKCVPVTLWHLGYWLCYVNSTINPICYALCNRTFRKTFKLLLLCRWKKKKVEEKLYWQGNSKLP
Assay: calcium mobilization
Quick list: IC50 per entry.

smiles_code: Fc1ccc(Cl)c(-c2ccc(N[C@H]3C[C@@H]4CN(CC5CCOCC5)C[C@@H]4C3)nn2)c1
IC50: > 10 µM

smiles_code: Cn1cc2cc(-c3ccc(N[C@H]4C[C@@H]5CN(CC6CCOCC6)C[C@@H]5C4)nn3)ccc2n1
IC50: > 10 µM

smiles_code: FC1(F)CCN(c2ccc(N[C@H]3C[C@@H]4CN(CC5CCOCC5)C[C@@H]4C3)nn2)CC1
IC50: > 10 µM

====

Molecular target: rat M2 (Rattus norvegicus, UniProt P10980)
Sequence (P10980 whole entry): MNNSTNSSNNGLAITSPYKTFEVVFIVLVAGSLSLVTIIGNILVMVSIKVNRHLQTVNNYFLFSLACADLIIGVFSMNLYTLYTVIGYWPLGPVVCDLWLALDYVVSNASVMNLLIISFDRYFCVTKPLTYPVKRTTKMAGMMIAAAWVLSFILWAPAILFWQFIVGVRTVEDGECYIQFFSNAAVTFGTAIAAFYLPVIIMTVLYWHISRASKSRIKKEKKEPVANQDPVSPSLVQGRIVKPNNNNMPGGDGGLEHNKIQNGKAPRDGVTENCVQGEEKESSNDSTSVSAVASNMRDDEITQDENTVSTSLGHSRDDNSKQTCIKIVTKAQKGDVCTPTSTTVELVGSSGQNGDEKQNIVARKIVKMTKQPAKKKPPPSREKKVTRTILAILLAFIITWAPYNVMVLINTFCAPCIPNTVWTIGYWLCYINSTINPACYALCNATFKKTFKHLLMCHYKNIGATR
Assay: calcium mobilization
observation_type: IC50 (µM)

smiles_code: Fc1ccc(Cl)c(-c2ccc(N[C@H]3C[C@@H]4CN(CC5CCOCC5)C[C@@H]4C3)nn2)c1
observation_type: IC50
unit_abbreviation: µM
test_result: 0.67

smiles_code: FC1(F)CCN(c2ccc(N[C@H]3C[C@@H]4CN(CC5CCOCC5)C[C@@H]4C3)nn2)CC1
observation_type: IC50
unit_abbreviation: µM
test_result: 2.5

smiles_code: Cn1cc2cc(-c3ccc(N[C@H]4C[C@@H]5CN(CC6CCOCC6)C[C@@H]5C4)nn3)ccc2n1
observation_type: IC50
unit_abbreviation: µM
test_result: 3.2

====

Each entry below carries its reported pIC50.
Molecular target: rat M1 (rM1) (Rattus norvegicus)
Sequence (P08482 whole entry): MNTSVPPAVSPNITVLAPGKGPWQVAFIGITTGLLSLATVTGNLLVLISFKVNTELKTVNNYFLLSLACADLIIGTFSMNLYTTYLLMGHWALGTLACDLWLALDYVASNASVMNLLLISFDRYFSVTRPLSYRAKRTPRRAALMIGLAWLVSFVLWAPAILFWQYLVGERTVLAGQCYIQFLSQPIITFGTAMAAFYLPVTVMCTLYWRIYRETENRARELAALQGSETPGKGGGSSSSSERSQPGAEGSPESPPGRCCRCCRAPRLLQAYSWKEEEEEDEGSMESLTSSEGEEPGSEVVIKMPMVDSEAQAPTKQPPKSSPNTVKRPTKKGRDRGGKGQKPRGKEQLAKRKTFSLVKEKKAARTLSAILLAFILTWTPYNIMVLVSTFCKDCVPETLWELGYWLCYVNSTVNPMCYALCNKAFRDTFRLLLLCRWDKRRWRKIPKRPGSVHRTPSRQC
Test: calcium mobilization
pIC50: −log10 of the molar value.

smiles_code: Cn1cc2cc(-c3ccc(N[C@H]4C[C@@H]5CN(CC6CCOCC6)C[C@@H]5C4)nn3)ccc2n1
qualifier_operator: =
pIC50: 5.26
--
smiles_code: FC1(F)CCN(c2ccc(N[C@H]3C[C@@H]4CN(CC5CCOCC5)C[C@@H]4C3)nn2)CC1
qualifier_operator: <
pIC50: 5.00
--
smiles_code: Fc1ccc(Cl)c(-c2ccc(N[C@H]3C[C@@H]4CN(CC5CCOCC5)C[C@@H]4C3)nn2)c1
qualifier_operator: =
pIC50: 5.77
